# Target or system: T1, human CNTN4-rabbit Fc (human; rabbit, UniProt Q8IWV2 19-1000, limits assumed)
# T1 construct: not shown: rabbit Fc
# T1 sequence (looked up): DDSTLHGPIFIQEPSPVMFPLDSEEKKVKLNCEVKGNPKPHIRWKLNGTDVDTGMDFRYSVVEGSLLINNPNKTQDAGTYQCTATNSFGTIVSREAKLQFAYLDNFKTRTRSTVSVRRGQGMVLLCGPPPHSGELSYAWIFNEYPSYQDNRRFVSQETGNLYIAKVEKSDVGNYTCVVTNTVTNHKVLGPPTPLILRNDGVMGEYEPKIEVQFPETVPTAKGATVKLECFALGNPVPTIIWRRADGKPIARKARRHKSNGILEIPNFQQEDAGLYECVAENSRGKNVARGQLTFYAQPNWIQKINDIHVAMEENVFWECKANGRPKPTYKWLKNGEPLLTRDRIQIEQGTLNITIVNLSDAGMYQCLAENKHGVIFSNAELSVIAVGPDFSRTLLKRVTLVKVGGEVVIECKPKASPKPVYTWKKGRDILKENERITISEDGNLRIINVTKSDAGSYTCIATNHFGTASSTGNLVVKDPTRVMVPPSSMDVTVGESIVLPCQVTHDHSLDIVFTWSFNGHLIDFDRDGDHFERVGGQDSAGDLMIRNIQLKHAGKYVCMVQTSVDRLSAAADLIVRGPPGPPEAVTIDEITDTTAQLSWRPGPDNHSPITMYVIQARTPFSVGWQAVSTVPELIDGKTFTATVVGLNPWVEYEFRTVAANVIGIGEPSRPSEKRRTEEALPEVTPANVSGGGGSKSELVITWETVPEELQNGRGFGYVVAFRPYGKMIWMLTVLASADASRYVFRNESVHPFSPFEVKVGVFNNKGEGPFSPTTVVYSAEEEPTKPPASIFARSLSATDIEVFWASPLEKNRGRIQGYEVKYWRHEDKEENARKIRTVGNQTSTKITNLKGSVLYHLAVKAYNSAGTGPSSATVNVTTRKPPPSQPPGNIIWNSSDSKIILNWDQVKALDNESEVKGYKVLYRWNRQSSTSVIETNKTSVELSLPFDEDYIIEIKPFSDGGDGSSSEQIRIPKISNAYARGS
# Procedure summary: ELISA, plate coated with antigen-rabbit Fc, anti-human IgG Fc-HRP
Measurement type: EC50 (pM)
Write down the numeric answer in pM and omit the unit.

Please review the following examples before continuing.
Binder	Measurement units	Numeric readout
anti-CNTN4 IgG A13WB2 (antibody, V domains shown, human IgG4 (S228P)) VH: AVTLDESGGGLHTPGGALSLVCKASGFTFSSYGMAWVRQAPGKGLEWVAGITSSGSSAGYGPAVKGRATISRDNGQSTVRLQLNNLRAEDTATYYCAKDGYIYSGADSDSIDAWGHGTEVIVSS VL: ALTQPSSVSANLGGTVEITCSGGYSGYGWYQQKSPGSAPVTLIYYNDKRPSDIPSRFSGSKSGSTGTLTITGVQAEDEAVYFCGSRDSSTYVDIFGAGTTLTVL	pM	10
anti-CNTN4 IgG A13WB25 (antibody, V domains shown, human IgG4 (S228P)) VH: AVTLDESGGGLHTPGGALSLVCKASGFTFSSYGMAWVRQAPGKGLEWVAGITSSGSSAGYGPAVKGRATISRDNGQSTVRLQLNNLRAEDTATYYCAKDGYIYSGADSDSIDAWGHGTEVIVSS VL: ALTQPSSVSANLGGTVEITCSGGGGSYGWYQQKSPGSAPVTVIYYNDKRPSDIPSRFSGSKSGSTGTLTITGVQAEDEAVYFCGGYDGSTYAGIFGAGTTLTVL	pM	10

Let's switch to this binder now.
# input Reported EC50 for anti-CNTN4 IgG A35SF14 (antibody, V domains shown, human IgG4 (S228P)) VH: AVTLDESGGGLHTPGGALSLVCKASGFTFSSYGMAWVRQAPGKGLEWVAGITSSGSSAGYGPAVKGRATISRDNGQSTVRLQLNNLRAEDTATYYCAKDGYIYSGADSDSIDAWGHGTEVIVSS VL: ALTQPSSVSANPGETIKITCSGGGGSYGWYQQKSPGSAPVTVIYNGNNRPSDIPSRFSGSKSGSTATLTITGVQAEDEAVYFCGGYDSGTYSGIFGAGTTLTVL : what is it?
# output 10
